The entries below come with measured Ki values attached.
biological target: α2-adrenoceptors (Rattus norvegicus, UniProt P22909); assay: inhibition of tritiated ligand (tritiated idazoxan) binding to α2-adrenoceptors in vitro (frontal cortical tissue); set-up: species or system rat (male Charles River CD); details: rat frontal cortical tissue, tritiated idazoxan, 0° C., 75 minutes; > from highest concentration which displaced ≤50% of the ligand
Sequence (P22909 whole entry): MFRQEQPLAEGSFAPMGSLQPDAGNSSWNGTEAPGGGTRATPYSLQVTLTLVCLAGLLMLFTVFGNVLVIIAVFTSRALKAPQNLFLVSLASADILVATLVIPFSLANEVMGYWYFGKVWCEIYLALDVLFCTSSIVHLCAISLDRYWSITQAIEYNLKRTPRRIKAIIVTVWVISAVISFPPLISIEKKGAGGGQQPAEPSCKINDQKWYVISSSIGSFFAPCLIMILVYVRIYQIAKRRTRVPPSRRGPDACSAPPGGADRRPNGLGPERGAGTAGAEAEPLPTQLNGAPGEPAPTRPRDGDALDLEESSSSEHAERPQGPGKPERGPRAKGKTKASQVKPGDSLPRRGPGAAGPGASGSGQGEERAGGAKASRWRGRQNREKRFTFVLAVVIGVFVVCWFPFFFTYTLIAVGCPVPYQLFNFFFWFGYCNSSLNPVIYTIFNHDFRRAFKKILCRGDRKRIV
Where a name gives a salt, the structure may show the parent alone.

>>> test_result("c1ccc2c(c1)OCC(CNCC1CCN(c3ncnc4ccccc34)CC1)O2 (centres unmarked) [Example 4, dihydrochloride]")
"30 nM"
>>> test_result("Clc1cccnc1N1CCC(CNCC2COc3ccccc3O2)CC1 (centres unmarked) [Example 3, hydrochloride]")
"86 nM"
>>> test_result("COc1cccc(N2CCC(CNCC3COc4ccccc4O3)CC2)c1 (centres unmarked) [Example 18, hydrochloride]")
"242 nM"
>>> test_result("Oc1cccc2c1CC(CNCC1CCN(c3ncccn3)CC1)CC2 (centres unmarked) [Example 10, dihydrobromide]")
"> 500 nM"
>>> test_result("c1ccc2c(c1)OCC(CNCC1CCN(c3cnccn3)CC1)O2 (centres unmarked) [Example 1, hydrochloride]")
"31 nM"

Problem: What measured Ki is associated with c1ccc(N2CCC(CNCC3COc4ccccc4O3)CC2)nc1 (centres unmarked) [Example 5, dihydrochloride] on α2-adrenoceptors (Rattus norvegicus, UniProt P22909)?
Solution: 50 nM

Problem: What measured Ki is associated with COc1ccccc1N1CCC(CNCC2COc3cccc(O)c3O2)CC1 (centres unmarked) on α2-adrenoceptors (Rattus norvegicus, UniProt P22909)?
Solution: > 500 nM

Problem: What measured Ki is associated with COc1ccccc1N1CCC(CNCC2COc3cc(Cl)c(Cl)cc3O2)CC1 (centres unmarked) on α2-adrenoceptors (Rattus norvegicus, UniProt P22909)?
Solution: > 500 nM

Problem: What measured Ki is associated with COc1cccc2c1CC(CNCC1CCN(c3ncccn3)CC1)CC2 (centres unmarked) [Example 9, hydrochloride] on α2-adrenoceptors (Rattus norvegicus, UniProt P22909)?
Solution: > 500 nM

Problem: What measured Ki is associated with COc1ccccc1N1CCC(CNCC2COc3ccccc3O2)CC1 (centres unmarked) [Example 2, dihydrochloride] on α2-adrenoceptors (Rattus norvegicus, UniProt P22909)?
Solution: 394 nM

Problem: What measured Ki is associated with "COc1ccccc1N1CCC(CNC[C@@H]2COc3ccccc3O2)CC1" on α2-adrenoceptors (Rattus norvegicus, UniProt P22909)?
Solution: > 500 nM

###

biological target: 5-HT1A receptors (Rattus norvegicus, UniProt P19327); assay: biochemical; format: binding, rat (male Charles River CD); details: rat hippocampal tissue, [^3 H]8-OH-DPAT, 25° C., 30 minutes
Sequence (P19327 whole entry): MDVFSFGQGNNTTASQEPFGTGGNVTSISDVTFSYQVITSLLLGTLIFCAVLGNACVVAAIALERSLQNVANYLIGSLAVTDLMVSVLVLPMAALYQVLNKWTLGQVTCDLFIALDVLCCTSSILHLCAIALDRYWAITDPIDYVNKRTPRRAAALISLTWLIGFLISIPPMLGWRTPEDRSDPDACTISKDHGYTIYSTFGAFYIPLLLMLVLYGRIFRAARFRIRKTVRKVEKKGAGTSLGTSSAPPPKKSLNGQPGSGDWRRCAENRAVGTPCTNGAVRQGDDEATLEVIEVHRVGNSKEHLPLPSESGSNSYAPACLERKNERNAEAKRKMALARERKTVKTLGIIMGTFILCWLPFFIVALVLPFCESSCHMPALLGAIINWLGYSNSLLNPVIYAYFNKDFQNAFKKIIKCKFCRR
Structures can show the parent of a compound that is named as a salt.
TEST READOUT: Ki (nM)
Report only the number, with the unit nM understood.

Study these solved cases before continuing.
>>> test_result("COc1cccc(N2CCC(CNCC3COc4ccccc4O3)CC2)c1 (centres unmarked) [Example 18, hydrochloride]")
7
>>> test_result("FC(F)(F)c1cccnc1NCCNCC1COc2ccccc2O1 (centres unmarked) [Example 8, dihydrochloride]")
18.8
>>> test_result("COc1cccc2c1CC(CNCC1CCN(c3ncccn3)CC1)CO2 (centres unmarked) [Example 11, monofumarate]")
14.7

Problem: What does the record list as Ki for Clc1cccnc1N1CCC(CNCC2COc3ccccc3O2)CC1 (centres unmarked) [Example 3, hydrochloride] ?
Solution: 1.9

Problem: What does the record list as Ki for COc1ccccc1N1CCC(CNCC2COc3cccc(OC)c3O2)CC1 (centres unmarked) [Example 6, dihydrochloride] ?
Solution: 252

Problem: What does the record list as Ki for c1ccc(N2CCC(CNCC3COc4ccccc4O3)CC2)nc1 (centres unmarked) [Example 5, dihydrochloride] ?
Solution: 22.6

Problem: What does the record list as Ki for COc1cccc2c1CC(CNCC1CCN(c3ncccn3)CC1)CC2 (centres unmarked) [Example 9, hydrochloride] ?
Solution: 8.2

Problem: What does the record list as Ki for COc1ccccc1N1CCC(CNCC2COc3ccccc3O2)CC1 (centres unmarked) [Example 2, dihydrochloride] ?
Solution: 7.7

Problem: What does the record list as Ki for Oc1cccc2c1CC(CNCC1CCN(c3ncccn3)CC1)CC2 (centres unmarked) [Example 10, dihydrobromide] ?
Solution: 7.7

Problem: What does the record list as Ki for c1ccc2c(c1)OCC(CNCC1CCN(c3ncnc4ccccc34)CC1)O2 (centres unmarked) [Example 4, dihydrochloride] ?
Solution: 3.8

Problem: What does the record list as Ki for c1ccc2c(c1)OCC(CNCC1CCN(c3cnccn3)CC1)O2 (centres unmarked) [Example 1, hydrochloride] ?
Solution: 14
